MEASURED_PARAMETER: melting point

>  <COMPOUND>
CCC(CC)n1nnc2c(Nc3ccc(C(C)C)cc3Br)nc(C)cc21

>  <RESULT_VALUE>
144 to 145 °C

$$$$
>  <COMPOUND>
CCCCC(CC)n1nnc2c(Nc3c(Cl)cc(OC)cc3OC)nc(C)cc21 (racemic)

>  <RESULT_VALUE>
155 to 156 °C

$$$$
>  <COMPOUND>
CCCCC(CC)n1nnc2c(Nc3ccc(C(C)C)cc3Br)nc(C)nc21 (racemic)

>  <RESULT_VALUE>
137 to 138 °C

$$$$
>  <COMPOUND>
CCCC(CCC)n1nnc2c(Nc3c(Br)cc(OC)cc3OC)nc(C)cc21

>  <RESULT_VALUE>
140 to 141 °C

$$$$
>  <COMPOUND>
CCC(COC)n1nnc2c(Nc3c(C)cc(C)cc3C)nc(C)nc21 (racemic)

>  <RESULT_VALUE>
144.5 to 147 °C

$$$$
>  <COMPOUND>
CCC(CC)n1nnc2c(Nc3ccc(C(C)C)cc3Br)nc(C)nc21

>  <RESULT_VALUE>
171 to 172 °C

$$$$
>  <COMPOUND>
CCCn1nnc2c(Nc3ccc(C(C)C)cc3Br)nc(C)nc21

>  <RESULT_VALUE>
80 to 81 °C

$$$$
>  <COMPOUND>
CCC(CC)n1nnc2c(Nc3c(C)cc(C)cc3C)nc(C)nc21

>  <RESULT_VALUE>
160 to 162 °C

$$$$
>  <COMPOUND>
CCCC(CCC)n1nnc2c(Nc3c(Cl)cc(OC)cc3OC)nc(C)cc21

>  <RESULT_VALUE>
157 to 158 °C

$$$$
